- METHOD_SUMMARY: Cytotoxicity against LPS-stimulated […] cells assessed as cell viability at 40 uM by MTT assay
- Type: cell-based, BV-2
- CONDITION_DETAILS: read-out: Activity
MEASUREMENT_NAME: viability at 40 µM (%)
Provide the reading as a plain figure in %.

{"columns": ["MOLECULE_SMILES", "viability at 40 µM / %"],
 "data": [
  ["C=C(C(=O)O)[C@@H]1CC[C@H](C)[C@@]2(O)CC(=O)C(C)=C2C1", 83.4],
  ["C=C(C(=O)O)[C@@H]1CC[C@H](C)C2=C(C1)[C@](C)(O)CC2=O", 77],
  ["C=C(C(=O)O)[C@@H]1CC[C@H](C)[C@H]2C(=O)C=C(C)[C@]2(O)C1", 76.1],
  ["CC1=C2C[C@H](C(=O)O)CC[C@H](C)[C@@H]2CC1=O", 77.6],
  ["C=C(C(=O)O)[C@@H]1CC[C@H](C)[C@@H]2CC[C@](C)(O)[C@@]2(O)C1", 78.8],
  ["O=c1c(O)c(-c2ccc(O)c(O)c2)oc2cc(O)cc(O)c12", 97]
]}

Now for another entry.
## Input Could you tell me which viability at 40 µM is on file for C=C(C(=O)O)[C@@H]1CC[C@H](C)[C@H](CCC(C)=O)C(=O)C1 ?
## Output 76.6
